Numbers sourced from the supplement of paper PMC10307832.

System: COR-L23
measurement.notes: relative viability (nuclei count vs DMSO), 5 days (fraction); higher = more cells survive
experimental.setup: first compound 0.01581 µM
assay.metric: relative viability

compound	target.or.system	measurement
Nc1ccn([C@@H]2O[C@H](CO)[C@@H](O)[C@@H]2O)c(=O)n1 [Cytarabine] + CCNC(=O)c1noc(-c2cc(C(C)C)c(O)cc2O)c1-c1ccc(CN2CCOCC2)cc1 [Luminespib] (partner 0.01 µM)	COR-L23	0.789
Nc1ccn([C@@H]2O[C@H](CO)[C@@H](O)[C@@H]2O)c(=O)n1 [Cytarabine] + CC1(C)CCC(c2ccc(Cl)cc2)=C(CN2CCN(c3ccc(C(=O)NS(=O)(=O)c4ccc(N[C@H](CCN5CCOCC5)CSc5ccccc5)c(S(=O)(=O)C(F)(F)F)c4)cc3)CC2)C1 [Navitoclax] (partner 0.5 µM)	COR-L23	0.842
Nc1ccn([C@@H]2O[C@H](CO)[C@@H](O)[C@@H]2O)c(=O)n1 [Cytarabine] + CC(=O)c1c(C)c2cnc(Nc3ccc(N4CCNCC4)cn3)nc2n(C2CCCC2)c1=O [Palbociclib] (partner 0.5 µM)	COR-L23	0.228
Nc1ccn([C@@H]2O[C@H](CO)[C@@H](O)[C@@H]2O)c(=O)n1 [Cytarabine] + O=C(c1cc(Cc2n[nH]c(=O)c3ccccc23)ccc1F)N1CCN(C(=O)C2CC2)CC1 [Olaparib] (partner 8 µM)	COR-L23	0.309
COc1cc2nccc(Oc3ccc(NC(=O)Nc4cc(C)on4)c(Cl)c3)c2cc1OC [Tivozanib] + CC(=O)c1c(C)c2cnc(Nc3ccc(N4CCNCC4)cn3)nc2n(C2CCCC2)c1=O [Palbociclib] (partner 0.5 µM)	COR-L23	0.294
COc1cc2nccc(Oc3ccc(NC(=O)Nc4cc(C)on4)c(Cl)c3)c2cc1OC [Tivozanib] + CC(C)C[C@H](NC(=O)[C@H](Cc1ccccc1)NC(=O)c1cnccn1)B(O)O [Bortezomib] (partner 0.002 µM)	COR-L23	0.931
Nc1ccn([C@@H]2O[C@H](CO)[C@@H](O)[C@@H]2O)c(=O)n1 [Cytarabine] + Cc1cc(Nc2cc(N3CCN(C)CC3)nc(Sc3ccc(NC(=O)C4CC4)cc3)n2)n[nH]1 [Tozasertib] (partner 0.1 µM)	COR-L23	0.141
COc1cc2nccc(Oc3ccc(NC(=O)Nc4cc(C)on4)c(Cl)c3)c2cc1OC [Tivozanib] + Nc1nc2[nH]cc(CCc3ccc(C(=O)N[C@@H](CCC(=O)O)C(=O)O)cc3)c2c(=O)[nH]1 [Pemetrexed] (partner 0.2 µM)	COR-L23	0.192
Nc1ccn([C@@H]2O[C@H](CO)[C@@H](O)[C@@H]2O)c(=O)n1 [Cytarabine] + COc1cccc2cc(-c3nc([C@H]4CC[C@H](C(=O)O)CC4)n4ncnc(N)c34)[nH]c12 [OSI-027] (partner 0.5 µM)	COR-L23	0.546
Nc1ccn([C@@H]2O[C@H](CO)[C@@H](O)[C@@H]2O)c(=O)n1 [Cytarabine] + CC(C)C[C@H](NC(=O)[C@H](Cc1ccccc1)NC(=O)c1cnccn1)B(O)O [Bortezomib] (partner 0.002 µM)	COR-L23	0.945

====

Recorded relative viability values for a group of compounds are listed next.
Tested on: NCI-H647
measurement.notes: relative viability (nuclei count vs DMSO), 5 days (fraction); higher = more cells survive
experimental.setup: first compound 0.01581 µM

compound	relative viability
COc1cc2nccc(Oc3ccc(NC(=O)Nc4cc(C)on4)c(Cl)c3)c2cc1OC [Tivozanib] + CC1(C)CCC(c2ccc(Cl)cc2)=C(CN2CCN(c3ccc(C(=O)NS(=O)(=O)c4ccc(N[C@H](CCN5CCOCC5)CSc5ccccc5)c(S(=O)(=O)C(F)(F)F)c4)cc3)CC2)C1 [Navitoclax] (partner 0.5 µM)	1.24
Nc1ccn([C@@H]2O[C@H](CO)[C@@H](O)[C@@H]2O)c(=O)n1 [Cytarabine] + N=C(N)NC(=N)NCCc1ccccc1 [Phenformin] (partner 250 µM)	0.204
Nc1ccn([C@@H]2O[C@H](CO)[C@@H](O)[C@@H]2O)c(=O)n1 [Cytarabine] + C[C@@H](Oc1cc(-c2cnn(C3CCNCC3)c2)cnc1N)c1c(Cl)ccc(F)c1Cl [Crizotinib] (partner 1 µM)	0.518
COc1cc2nccc(Oc3ccc(NC(=O)Nc4cc(C)on4)c(Cl)c3)c2cc1OC [Tivozanib] + Cc1nc(NC(=O)N2CCC[C@H]2C(N)=O)sc1-c1ccnc(C(C)(C)C(F)(F)F)c1 [Alpelisib] (partner 2 µM)	1.17
COc1cc2nccc(Oc3ccc(NC(=O)Nc4cc(C)on4)c(Cl)c3)c2cc1OC [Tivozanib] + Nc1nc2[nH]cc(CCc3ccc(C(=O)N[C@@H](CCC(=O)O)C(=O)O)cc3)c2c(=O)[nH]1 [Pemetrexed] (partner 0.2 µM)	0.207
COc1cc2nccc(Oc3ccc(NC(=O)Nc4cc(C)on4)c(Cl)c3)c2cc1OC [Tivozanib] + O=C(c1cc(Cc2n[nH]c(=O)c3ccccc23)ccc1F)N1CCN(C(=O)C2CC2)CC1 [Olaparib] (partner 8 µM)	0.529
Nc1ccn([C@@H]2O[C@H](CO)[C@@H](O)[C@@H]2O)c(=O)n1 [Cytarabine] + CC(=O)Nc1cccc(-n2c(=O)n(C3CC3)c(=O)c3c(Nc4ccc(I)cc4F)n(C)c(=O)c(C)c32)c1 [Trametinib] (partner 0.02 µM)	0.317
COc1cc2nccc(Oc3ccc(NC(=O)Nc4cc(C)on4)c(Cl)c3)c2cc1OC [Tivozanib] + C[C@@H](Oc1cc(-c2cnn(C3CCNCC3)c2)cnc1N)c1c(Cl)ccc(F)c1Cl [Crizotinib] (partner 1 µM)	1.1
Nc1ccn([C@@H]2O[C@H](CO)[C@@H](O)[C@@H]2O)c(=O)n1 [Cytarabine] + COc1cc2c(Oc3ccc(NC(=O)C4(C(=O)Nc5ccc(F)cc5)CC4)cc3F)ccnc2cc1OCCCN1CCOCC1 [Foretinib] (partner 0.25 µM)	0.617
COc1cc2nccc(Oc3ccc(NC(=O)Nc4cc(C)on4)c(Cl)c3)c2cc1OC [Tivozanib] + Nc1ncn([C@H]2C[C@H](O)[C@@H](CO)O2)c(=O)n1 [Decitabine] (partner 2 µM)	0.362
